experimental_details: Pharmacokinetics of paeoniflorin in pseudo-germ-free (PGF) rats
Format: in vivo
condition_details: SD, rat, in vivo; PGF rats (antibiotic pretreated), oral paeoniflorin 20 mg/kg, plasma analyte = labelled substance
outcome_measure: AUC(0-inf) (ng·h/mL)
Numbers only, in ng·h/mL.

Which value of AUC(0-inf) has been reported for `O=C(O)c1ccccc1` in the records?
97.2

* * *

experimental_details: Pharmacokinetics of paeoniflorin in pseudo-germ-free (PGF) rats
Assay type: in vivo
condition_details: SD, rat, in vivo, po, 20 mg/kg, PGF rats, oral paeoniflorin 20 mg/kg, plasma analyte = labelled substance, Figures 3B, 3C; read-out: AUC(0-t) (unit inferred)
outcome_measure: AUC(0-t) (ng·h/mL)
Give bare numbers, in ng·h/mL.

Which value of AUC(0-t) has been reported for O=C(O)c1ccccc1 [Benzoic acid, benzoic acid] in the records?
68.5

* * *

experimental_details: Pharmacokinetics of paeoniflorin in pseudo-germ-free (PGF) rats
Type: in vivo
condition_details: SD, rat, in vivo, po, 20 mg/kg, PGF rats (antibiotic pretreated), oral paeoniflorin 20 mg/kg, plasma analyte = labelled substance; read-out: AUC (0-t)
outcome_measure: AUC(0-t) (ng·h/mL)
One number for each entry, in ng·h/mL.

Which value of AUC(0-t) has been reported for O=C(O)c1ccccc1 [Benzoic acid, benzoic acid] in the records?
94.8

* * *

experimental_details: Pharmacokinetics of paeoniflorin in normal SD rats (plasma, LC-MS/MS)
Type: in vivo, rat
condition_details: SD, rat, in vivo, po, 20 mg/kg, normal rats, oral paeoniflorin 20 mg/kg, plasma analyte = labelled substance, n = 6; read-out: Cmax
outcome_measure: Cmax (ng/mL)
One number for each entry, in ng/mL.

Which value of Cmax has been reported for `O=C(O)c1ccccc1` in the records?
55.6

* * *

experimental_details: Pharmacokinetics of paeoniflorin in normal SD rats (plasma, LC-MS/MS)
Assay type: in vivo, rat
condition_details: SD, rat, plasma; normal rats, oral 20 mg/kg, n = 6; read-out: MRT (0-∞)
outcome_measure: MRT inf (h)
Numbers only, in h.

Which value of MRT inf has been reported for `C[C@@]12C[C@@]3(O)O[C@@H](O1)[C@]1(COC(=O)c4ccccc4)[C@H]3C[C@@]12O[C@@H]1O[C@H](CO)[C@@H](O)[C@H](O)[C@H]1O` in the records?
2.04

Numbers sourced from paper PMC6435784.
